biological target: Estrogen receptor (Homo sapiens); assay: qHTS assay to identify small molecule agonists of the estrogen receptor alpha (ER-alpha) signaling pathway in the presence of an antagonist (AID 1259383); conditions: VM7Luc4E2 cells, ERE-luciferase, +ICI-182,780, 22 h; series mostly up to 92.4 µM; note: nearly all actives have a fitted effect of over 15% in size
Calls of active or inactive are those of the source. Calls come from the whole dose curve.
Possible outcomes: active, inactive

- compound: "C=CC(=O)OCCCCOC(=O)C=C"
  system.under.test: "Estrogen receptor (Homo sapiens)"
  class: "inactive"
- compound: "CCc1nn(C)c(C(=O)NCc2ccc(C(C)(C)C)cc2)c1Cl"
  system.under.test: "Estrogen receptor (Homo sapiens)"
  class: "inactive"
- compound: "C=COCCCl"
  system.under.test: "Estrogen receptor (Homo sapiens)"
  class: "inactive"
- compound: "Cc1ccc(CCl)cc1"
  system.under.test: "Estrogen receptor (Homo sapiens)"
  class: "inactive"
- compound: "CC(C)(COCC1CO1)COCC1CO1 (stereo not drawn)"
  system.under.test: "Estrogen receptor (Homo sapiens)"
  class: "inactive"
- compound: "CC1(C)CN=C(NN=C(/C=C/c2ccc(C(F)(F)F)cc2)/C=C/c2ccc(C(F)(F)F)cc2)NC1"
  system.under.test: "Estrogen receptor (Homo sapiens)"
  class: "inactive"
- compound: "c1ccc2c(c1)[nH]c1cnccc12"
  system.under.test: "Estrogen receptor (Homo sapiens)"
  class: "inactive"
- compound: "CCC(C)(C)C(=O)OC1=C(c2ccc(Cl)cc2Cl)C(=O)OC12CCCCC2"
  system.under.test: "Estrogen receptor (Homo sapiens)"
  class: "inactive"
- compound: "CCOP(=S)(OCC)SCS(=O)(=O)CC"
  system.under.test: "Estrogen receptor (Homo sapiens)"
  class: "inactive"
- compound: "C=CC(=O)OCC(COC(=O)C=C)(COC(=O)C=C)COC(=O)C=C"
  system.under.test: "Estrogen receptor (Homo sapiens)"
  class: "inactive"
- compound: "Nc1ccccc1C(=O)Oc1ccc2ccccc2c1"
  system.under.test: "Estrogen receptor (Homo sapiens)"
  class: "active"
- compound: "COS(=O)(=O)c1ccc(C)cc1"
  system.under.test: "Estrogen receptor (Homo sapiens)"
  class: "inactive"
- compound: "N#CCCO"
  system.under.test: "Estrogen receptor (Homo sapiens)"
  class: "inactive"
- compound: "O=C(CCl)Nc1ccccc1"
  system.under.test: "Estrogen receptor (Homo sapiens)"
  class: "inactive"
- compound: "COc1ccc(OC)c(CC(C)N)c1 (stereo not drawn)"
  system.under.test: "Estrogen receptor (Homo sapiens)"
  class: "inactive"
- compound: "O=[N+]([O-])c1cc(Cl)ccc1Cl"
  system.under.test: "Estrogen receptor (Homo sapiens)"
  class: "inactive"
- compound: "O=C1c2ccccc2C(=O)C1C(=O)C(c1ccccc1)c1ccc(Cl)cc1 (stereo not drawn)"
  system.under.test: "Estrogen receptor (Homo sapiens)"
  class: "inactive"
- compound: "COc1cccc2c1C(=O)c1c(O)c3c(c(O)c1C2=O)C[C@@](O)(C(=O)CO)CC3OC1CC(N2CCOC(OC)C2)C(O)C(C)O1 (stereo partly drawn)"
  system.under.test: "Estrogen receptor (Homo sapiens)"
  class: "inactive"
- compound: "C[C@H]1O[C@@H](O[C@H]2[C@@H](O)C[C@H](O[C@H]3[C@@H](O)C[C@H](O[C@H]4CC[C@@]5(C)[C@H](CC[C@@H]6[C@@H]5CC[C@]5(C)[C@@H](C7=CC(=O)OC7)CC[C@]65O)C4)O[C@@H]3C)O[C@@H]2C)C[C@H](O)[C@@H]1O"
  system.under.test: "Estrogen receptor (Homo sapiens)"
  class: "inactive"
- compound: "O=S(=O)(c1ccc(Cl)cc1)c1ccc(Cl)cc1"
  system.under.test: "Estrogen receptor (Homo sapiens)"
  class: "inactive"
- compound: "CC(=[OH+])/C=C(/C)[O-].CC(=[OH+])/C=C(\\C)[O-].CC(=[OH+])/C=C(\\C)[O-].[Fe]"
  system.under.test: "Estrogen receptor (Homo sapiens)"
  class: "inactive"
- compound: "CC(C)C1CCC(Cc2ccc(Cl)cc2)C1(O)Cn1cncn1 (stereo not drawn)"
  system.under.test: "Estrogen receptor (Homo sapiens)"
  class: "inactive"
- compound: "Cc1cc(C)c(C2=C(OC(=O)CC(C)(C)C)C3(CCCC3)OC2=O)c(C)c1"
  system.under.test: "Estrogen receptor (Homo sapiens)"
  class: "inactive"
